Attribution: patent US20170051068A1

- experimentalTarget: T1, monomeric human BCMA (human, UniProt Q02223 1-54, limits assumed)
- T1 construct: also called monomeric BCMA antigen
- T1 sequence: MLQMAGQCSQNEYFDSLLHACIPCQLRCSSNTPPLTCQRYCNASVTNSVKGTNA
- procedureSummary: SPR, monomeric human BCMA
valueType: koff

# binder, valueType, val
measured = [
    ("BCMB129 (antibody, human IgG4 S228P, lambda, F234A L235A, V domains shown, IgG4 S228P, L234A, L235A; also called BCBM129) VH: QLQLQESGPGLVKPSETLSLTCTVSGGSISSGSYFWGWIRQPPGKGLEWIGSIYYSGSTYYNPSLKSRVTISVDTSKNQFSLKLSSVTAADTAVYYCARHDGAVAGLFDYWGQGTLVTVSS VL: SYVLTQPPSVSVAPGQTARITCGGNNIGSKSVHWYQQPPGQAPVVVVYDDSDRPSGIPERFSGSNSGNTATLTISRVEAGDEAVYYCQVWDSSSDHVVFGGGTKLTVLG", "koff", "0.00843 s⁻¹"),
]
